# PROTOCOL TEXT: in vivo
# TEST CONDITIONS: mouse, in vivo, po, LD50 p.o., p.o., 24 hours after administration, male ddY mice
MEASURED PARAMETER: LD50 at 24 h

Here are 4 molecules together with their reported answers.
1. C=CCN(CCCOc1ccc2c(c1)OCC2=O)C1CCCCC1 [Compound 160]	> 300 mg/kg
2. CCCCCCC[N+](CC)(CC)CCCOc1ccc2c(c1)OCC2=O.[Br-] [Compound 286]	300 to 1000 mg/kg
3. O=C1CCc2cc(OCCC[N+]34CN5CN(CN(C5)C3)C4)ccc21 [Compound 1400]	> 300 mg/kg
4. CCN(CCCCCCO)CCCOc1ccc2c(c1)OCC2=O [Compound 188]	> 300 mg/kg

The molecule identified as CCCCCCC[N+](CC)(CC)CCCOc1cccc2ccc(=O)oc12 [Compound 632] registered its LD50 at 24 h at > 300 mg/kg

// LD50 at 24 h lookup, molecule = CC1CCCN(CCCOc2ccc3c(c2)OCC3=O)C1 (stereo not drawn) [Compound 1118] , result: > 300 mg/kg
